Molecular target: Bromodomain and PHD finger-containing protein 3 (Homo sapiens)
Sequence (Q9ULD4 whole entry): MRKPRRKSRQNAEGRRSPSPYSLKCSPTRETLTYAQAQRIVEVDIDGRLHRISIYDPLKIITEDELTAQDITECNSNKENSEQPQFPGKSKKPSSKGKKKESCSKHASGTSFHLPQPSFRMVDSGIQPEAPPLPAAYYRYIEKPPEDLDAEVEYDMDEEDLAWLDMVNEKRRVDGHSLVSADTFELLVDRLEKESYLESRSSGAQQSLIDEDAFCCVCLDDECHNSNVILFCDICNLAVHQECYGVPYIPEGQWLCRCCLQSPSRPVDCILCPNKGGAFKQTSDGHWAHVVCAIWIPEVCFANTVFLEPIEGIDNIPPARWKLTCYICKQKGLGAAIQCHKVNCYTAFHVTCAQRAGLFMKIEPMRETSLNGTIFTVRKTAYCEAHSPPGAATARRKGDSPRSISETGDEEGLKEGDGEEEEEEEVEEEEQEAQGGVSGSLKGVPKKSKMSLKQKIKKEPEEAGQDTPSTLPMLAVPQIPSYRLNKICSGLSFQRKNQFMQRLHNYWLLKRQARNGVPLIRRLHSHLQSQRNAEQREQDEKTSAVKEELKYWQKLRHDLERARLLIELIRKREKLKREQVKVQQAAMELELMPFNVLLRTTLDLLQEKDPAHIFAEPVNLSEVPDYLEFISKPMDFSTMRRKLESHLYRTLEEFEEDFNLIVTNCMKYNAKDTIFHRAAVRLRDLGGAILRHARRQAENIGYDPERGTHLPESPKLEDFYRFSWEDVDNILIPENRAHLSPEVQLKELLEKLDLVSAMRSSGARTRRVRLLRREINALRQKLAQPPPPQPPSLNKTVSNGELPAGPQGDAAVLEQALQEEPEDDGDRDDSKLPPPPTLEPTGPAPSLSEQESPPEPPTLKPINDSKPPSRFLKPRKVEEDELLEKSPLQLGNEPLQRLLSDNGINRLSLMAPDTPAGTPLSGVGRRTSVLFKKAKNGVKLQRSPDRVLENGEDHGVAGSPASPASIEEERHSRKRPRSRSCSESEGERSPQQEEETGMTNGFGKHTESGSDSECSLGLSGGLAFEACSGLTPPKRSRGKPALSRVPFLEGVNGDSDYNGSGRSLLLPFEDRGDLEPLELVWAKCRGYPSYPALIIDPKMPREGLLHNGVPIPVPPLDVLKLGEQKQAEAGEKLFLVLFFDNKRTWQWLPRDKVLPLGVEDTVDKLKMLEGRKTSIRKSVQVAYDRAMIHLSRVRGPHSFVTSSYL
Test: Inhibition of BRPF3 (unknown origin) by TR-FRET assay
REPORTED_METRIC: IC50 (µM)
Form entry: value (µM) — number only.

query: Item under review: CC1(C2CC2)NC(=O)N(CC(=O)Nc2ccc(Br)c(S(=O)(=O)N3CCCCC3)c2)C1=O (racemic) . Reported IC50?
result: 10

---

So I've got a bunch of compounds here, and I need their IC50 values.
Molecular target: ATPase family AAA domain-containing protein 2 (Homo sapiens, UniProt Q6PL18)
Sequence (Q6PL18 whole entry, the tested form may be a part): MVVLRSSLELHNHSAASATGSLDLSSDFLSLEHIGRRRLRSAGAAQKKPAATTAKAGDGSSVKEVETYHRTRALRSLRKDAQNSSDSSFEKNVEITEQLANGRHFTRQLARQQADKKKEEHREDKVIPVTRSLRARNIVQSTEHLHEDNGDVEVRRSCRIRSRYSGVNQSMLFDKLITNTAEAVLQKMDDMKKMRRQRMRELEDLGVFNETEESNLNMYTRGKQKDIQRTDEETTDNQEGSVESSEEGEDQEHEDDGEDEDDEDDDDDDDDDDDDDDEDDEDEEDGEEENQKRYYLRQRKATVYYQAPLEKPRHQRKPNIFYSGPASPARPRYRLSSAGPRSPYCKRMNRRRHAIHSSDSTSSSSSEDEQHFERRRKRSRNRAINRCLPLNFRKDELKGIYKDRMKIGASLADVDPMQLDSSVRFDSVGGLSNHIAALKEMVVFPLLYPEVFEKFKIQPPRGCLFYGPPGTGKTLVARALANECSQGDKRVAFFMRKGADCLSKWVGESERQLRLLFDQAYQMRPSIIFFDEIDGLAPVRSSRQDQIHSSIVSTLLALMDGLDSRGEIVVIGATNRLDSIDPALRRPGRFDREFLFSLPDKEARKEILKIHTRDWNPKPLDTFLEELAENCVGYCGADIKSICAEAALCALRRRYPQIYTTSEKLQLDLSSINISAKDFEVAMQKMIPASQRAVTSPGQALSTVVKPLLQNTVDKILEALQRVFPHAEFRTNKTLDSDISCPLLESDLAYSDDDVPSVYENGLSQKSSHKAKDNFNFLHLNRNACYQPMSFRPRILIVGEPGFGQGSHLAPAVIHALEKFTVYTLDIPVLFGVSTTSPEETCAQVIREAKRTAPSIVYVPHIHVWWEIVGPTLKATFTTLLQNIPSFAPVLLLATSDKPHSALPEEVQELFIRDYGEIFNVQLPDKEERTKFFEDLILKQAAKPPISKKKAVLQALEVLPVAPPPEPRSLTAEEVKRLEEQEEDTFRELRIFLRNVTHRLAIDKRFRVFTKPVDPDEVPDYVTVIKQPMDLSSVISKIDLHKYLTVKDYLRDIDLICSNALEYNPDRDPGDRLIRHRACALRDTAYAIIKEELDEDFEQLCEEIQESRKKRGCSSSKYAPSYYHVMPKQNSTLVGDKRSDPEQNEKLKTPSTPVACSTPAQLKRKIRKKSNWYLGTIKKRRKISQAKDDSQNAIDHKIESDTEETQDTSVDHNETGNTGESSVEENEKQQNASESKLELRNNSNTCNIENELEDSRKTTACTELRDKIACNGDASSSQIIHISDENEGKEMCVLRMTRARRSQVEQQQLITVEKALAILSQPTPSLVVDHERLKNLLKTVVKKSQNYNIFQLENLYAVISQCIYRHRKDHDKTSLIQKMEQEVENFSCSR
Assay: Displacement of SGRG-K(Ac)-GG-K(Ac)-GLG-K(Ac)-GGAKRHRKV-biotin) from His6/FLAG-tagged TEV fused ATAD2 bromodomain (981 to 1121 residues) (unknown origin) expressed in Escherichia coli BL21(DE3) cells after 30 mins by TR-FRET assay

query: Fill in the recorded IC50 for this compound, with ATPase family AAA domain-containing protein 2 (Homo sapiens, UniProt Q6PL18) as test system: CC1(C2CC2)NC(=O)N(CC(=O)Nc2cccc(S(=O)(=O)N3CCCCC3)c2)C1=O (racemic)
result: > 100 µM

query: Fill in the recorded IC50 for this compound, with ATPase family AAA domain-containing protein 2 (Homo sapiens, UniProt Q6PL18) as test system: CCC(=O)Nc1ccc(OC)c(S(=O)(=O)N2CCCCC2)c1
result: > 1000 µM

query: Fill in the recorded IC50 for this compound, with ATPase family AAA domain-containing protein 2 (Homo sapiens, UniProt Q6PL18) as test system: Cc1ccc(NC(=O)CN2C(=O)NC(Cc3ccccc3)C2=O)cc1S(=O)(=O)N1CCCCC1 (stereo not drawn)
result: > 100 µM

---

So I've got a bunch of compounds here, and I need their IC50 values.
Target: ATPase family AAA domain-containing protein 2 (Homo sapiens, UniProt Q6PL18)
Assay: Displacement of SGRG-K(Ac)-GG-K(Ac)-GLG-K(Ac)-GGAKRHRKV-biotin) from His6/FLAG-tagged TEV fused ATAD2 bromodomain (981 to 1121 residues) (unknown origin) expressed in Escherichia coli BL21(DE3) cells after 30 mins by TR-FRET assay

query: Item under review: O=C(CNC(=O)C1CCCCC1)Nc1ccc(Cl)c(S(=O)(=O)N2CCCCC2)c1 . Reported IC50?
result: > 100 µM

query: Item under review: CCC(=O)Nc1ccc(F)c(S(=O)(=O)N2CCCCC2)c1 . Reported IC50?
result: > 1000 µM

query: Item under review: COc1ccc(NC(=O)CN2C(=O)NC(C)(C3CC3)C2=O)cc1S(=O)(=O)N1CCCCC1 (racemic) . Reported IC50?
result: > 100 µM

query: Item under review: CCC(=O)Nc1ccc(O)c(S(=O)(=O)N2CCCCC2)c1 . Reported IC50?
result: > 1000 µM

query: Item under review: CCC(=O)Nc1ccc(CC)c(S(=O)(=O)N2CCCCC2)c1 . Reported IC50?
result: > 1000 µM

query: Item under review: CCC(=O)Nc1ccc(C#N)c(S(=O)(=O)N2CCCCC2)c1 . Reported IC50?
result: > 1000 µM

---

Target: Bromodomain-containing protein 4 (Homo sapiens, UniProt O60885, Y97A)
Assay: Displacement of Alexa Fluor 647 labelled ligand from His6-tagged BRD4 BD2 (1 to 477 residues)/BD1 Y97A mutant (unknown origin) after 30 mins by TR-FRET assay
REPORTED_METRIC: IC50 (µM)
Form entry: value (µM) — number only.

query: Item under review: CC1(C2CC2)NC(=O)N(CC(=O)Nc2ccc(Cl)c(S(=O)(=O)N3CCCCC3)c2)C1=O (stereo in doubt; 18) . Reported IC50?
result: 31.6

query: Item under review: CC1(C2CC2)NC(=O)N(CC(=O)Nc2ccc(Br)c(S(=O)(=O)N3CCCCC3)c2)C1=O (racemic) . Reported IC50?
result: 20

query: Item under review: O=C(CCNC(=O)c1ccccc1)Nc1ccc(Cl)c(S(=O)(=O)N2CCCCC2)c1 . Reported IC50?
result: 39.8

query: Item under review: CC1(C2CC2)NC(=O)N(CC(=O)Nc2ccc(Cl)c(S(=O)(=O)N3CCCCC3)c2)C1=O (racemic) . Reported IC50?
result: 50.1

---

Biological target: Bromodomain-containing protein 4 (Homo sapiens, UniProt O60885, Y97A)
Test: Displacement of Alexa Fluor 647 labelled ligand from His6-tagged BRD4 BD2 (1 to 477 residues)/BD1 Y97A mutant (unknown origin) after 30 mins by TR-FRET assay
pIC50: −log10 of the molar value.
REPORTED_METRIC: pIC50

query: Item under review: Cc1ccc(NC(=O)CN2C(=O)NC(C)(C3CC3)C2=O)cc1S(=O)(=O)N1CCCCC1 (stereo unspecified) . Reported pIC50?
result: < 4.30

query: Item under review: Cc1ccc(NC(=O)CN2C(=O)NC3(CCc4ccccc43)C2=O)cc1S(=O)(=O)N1CCCCC1 (stereo unspecified) . Reported pIC50?
result: < 4.30

query: Item under review: COc1ccc(NC(=O)CN2C(=O)NC(C)(C3CC3)C2=O)cc1S(=O)(=O)N1CCCCC1 (racemic) . Reported pIC50?
result: < 4.30

query: Item under review: Cc1ccc(NC(=O)CN2C(=O)CN(C)C2=O)cc1S(=O)(=O)N1CCCCC1 . Reported pIC50?
result: < 3.30

query: Item under review: Cc1[nH]c(=O)c(C#N)c(C)c1CCC(=O)Nc1ccc(Cl)c(S(=O)(=O)N2CCCCC2)c1 . Reported pIC50?
result: < 4.30

query: Item under review: O=C(CCNC1=NS(=O)(=O)c2ccccc21)Nc1ccc(Cl)c(S(=O)(=O)N2CCCC2)c1 . Reported pIC50?
result: < 4.30
